Kindly supply the reported percent inhibition of viability values for the records listed here.
test system: IMC-1 (IL-2 20 ng/mL); experiment: percent inhibition of viability; higher = more inhibition; settings: 72 h; 100 nM;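 note: normalised to DMSO-only wells as negative and benzethonium chloride as positive control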
Numeric only. Scale: %

Exercise: Value lookup for percent inhibition of viability; key = O[C@H]1CC[C@H](Nc2ncc3nc(Nc4c(F)cc(F)cc4F)n([C@H]4CCOC4)c3n2)CC1 [Tanzisertib] (max concentration tested 10000 nM)
Key: 2.23

Exercise: Value lookup for percent inhibition of viability; key = Cc1nc(N)sc1-c1ccnc(Nc2ccc(N3CCOCC3)cc2)n1 [CYC-116] (max concentration tested 10000 nM)
Key: 3.54

Exercise: Value lookup for percent inhibition of viability; key = Cc1c(C(=O)Nc2ccc(N3C[C@@H](C)O[C@@H](C)C3)nc2)cccc1-c1ccc(OC(F)(F)F)cc1 [Sonidegib] (max concentration tested 10000 nM)
Key: 10.7

Exercise: Value lookup for percent inhibition of viability; key = C1=N/C2=N/c3ccc(OCCN4CCCC4)c(c3)COC/C=C/COCc3cccc(c3)C(=C1)N2 [Pacritinib] (max concentration tested 10000 nM)
Key: -10.2

Exercise: Value lookup for percent inhibition of viability; key = Cc1ccc(C(=O)N(CCCN)[C@@H](c2oc3cc(Cl)ccc3c(=O)c2Cc2ccccc2)C(C)C)cc1 (max concentration tested 100 nM)
Key: 101

Exercise: Value lookup for percent inhibition of viability; key = COc1cc2nccc(Oc3ccc(NC(=O)C4(C(=O)Nc5ccc(F)cc5)CC4)cc3)c2cc1OC [Cabozantinib] (max concentration tested 1000 nM)
Key: 6.03

Exercise: Value lookup for percent inhibition of viability; key = CC[C@@H]1C(=O)N(C)c2cnc(Nc3ccc(C(=O)N[C@H]4CC[C@H](N5CCN(CC6CC6)CC5)CC4)cc3OC)nc2N1C(C)C [Volasertib] (max concentration tested 1000 nM)
Key: 94

Exercise: Value lookup for percent inhibition of viability; key = CC(=O)[C@]1(O)Cc2c(O)c3c(c(O)c2[C@@H](O[C@H]2C[C@H](N)[C@H](O)[C@H](C)O2)C1)C(=O)c1ccccc1C3=O [Idarubicin] (max concentration tested 1000 nM)
Key: 101

Exercise: Value lookup for percent inhibition of viability; key = CC(C)(C#N)c1cc(Cn2cncn2)cc(C(C)(C)C#N)c1 [Anastrozole] (max concentration tested 10000 nM)
Key: -0.27

Exercise: Value lookup for percent inhibition of viability; key = CN(C[C@@H]1COCCO1)S(=O)(=O)Nc1ccc2ccc3ncc(-c4cnn(C)c4)cc3c(=O)c2c1 [MK-2461] (max concentration tested 10000 nM)
Key: 3.27

Exercise: Value lookup for percent inhibition of viability; key = O=NN(CCCl)C(=O)NC1CCCCC1 [Lomustine] (max concentration tested 10000 nM)
Key: -4.39

Exercise: Value lookup for percent inhibition of viability; key = CNC(=O)c1ccc(C)c(-n2c(C)cc(OCc3ccc(F)cc3F)c(Br)c2=O)c1 (max concentration tested 1000 nM)
Key: -3.82

Exercise: Value lookup for percent inhibition of viability; key = COc1ccc(S(=O)(=O)Nc2cccnc2Nc2ccc(O)cc2)cc1 [ABT-751] (max concentration tested 10000 nM)
Key: 4.35

Exercise: Value lookup for percent inhibition of viability; key = CCc1c(C(=O)C(N)=O)c2c(OCC(=O)O)cccc2n1Cc1ccccc1 [Varespladib] (max concentration tested 10000 nM)
Key: -5.72

Exercise: Value lookup for percent inhibition of viability; key = O=c1ncn2nc(Sc3ccc(F)cc3F)ccc2c1-c1c(Cl)cccc1Cl [VX 745] (max concentration tested 10000 nM)
Key: -6.12

Exercise: Value lookup for percent inhibition of viability; key = COc1cc(Nc2c(C#N)cnc3cc(OCCCN4CCN(C)CC4)c(OC)cc23)c(Cl)cc1Cl [Bosutinib] (max concentration tested 10000 nM)
Key: -10.5

Exercise: Value lookup for percent inhibition of viability; key = Nc1cc(F)ccc1NC(=O)/C=C/c1cnn(C/C=C/c2ccccc2)c1 [RGFP966] (max concentration tested 10000 nM)
Key: 0.87

Exercise: Value lookup for percent inhibition of viability; key = Cc1cn(-c2cc(NC(=O)c3ccc(C)c(Nc4nccc(-c5cccnc5)n4)c3)cc(C(F)(F)F)c2)cn1 [Nilotinib] (max concentration tested 10000 nM)
Key: 2.58

Exercise: Value lookup for percent inhibition of viability; key = CON(C)C(=O)N1N=C(c2cc(F)ccc2F)S[C@@]1(CCCN)c1ccccc1 [Filanesib] (max concentration tested 1000 nM)
Key: 100

Exercise: Value lookup for percent inhibition of viability; key = Cc1cc(Nc2cc(N3CCN(C)CC3)nc(/C=C/c3ccccc3)n2)n[nH]1 [ENMD-2076] (max concentration tested 10000 nM)
Key: 6.68

Exercise: Value lookup for percent inhibition of viability; key = Nc1cccc2c1C(=O)N(C1CCC(=O)NC1=O)C2=O (centres undefined) [Pomalidomide] (max concentration tested 10000 nM)
Key: -2.22

Exercise: Value lookup for percent inhibition of viability; key = CS(=O)(=O)N1CCc2c(-c3cnc(N)nc3)nc(N3CCOCC3)nc21 (max concentration tested 10000 nM)
Key: 2.38

Exercise: Value lookup for percent inhibition of viability; key = CCCCCOC(=O)Nc1nc(=O)n([C@@H]2O[C@H](C)[C@@H](O)[C@H]2O)cc1F [Capecitabine] (max concentration tested 10000 nM)
Key: -6.24

Exercise: Value lookup for percent inhibition of viability; key = COc1cc2c(Oc3ccc(NC(=O)C4(C(=O)Nc5ccc(F)cc5)CC4)cc3F)ccnc2cc1OCCCN1CCOCC1 [Foretinib] (max concentration tested 1000 nM)
Key: 3.45

###

tested on: NK-92 (IL-2 2.5 ng/mL); experiment: percent inhibition of viability; higher = more inhibition; conditions: 72 h; 10 nM
assay.metric: percent inhibition of viability (%)
Numeric only. Scale: %

Exercise: Value lookup for percent inhibition of viability; key = Nc1ccn([C@@H]2O[C@H](CO)[C@@H](O)C2(F)F)c(=O)n1 [Gemcitabine] (max concentration tested 1000 nM)
Key: 92.2

Exercise: Value lookup for percent inhibition of viability; key = CC[C@@]1(O)C(=O)OCc2c1cc1n(c2=O)Cc2cc3c(CN(C)C)c(O)ccc3nc2-1 [Topotecan] (max concentration tested 10000 nM)
Key: 14.4

Exercise: Value lookup for percent inhibition of viability; key = CNC(=O)c1cc(Oc2ccc(NC(=O)Nc3ccc(Cl)c(C(F)(F)F)c3)cc2)ccn1 [Sorafenib] (max concentration tested 1000 nM)
Key: -3.13

Exercise: Value lookup for percent inhibition of viability; key = Cc1ccc(NC(=O)c2ccc(CN3CC[C@H](N(C)C)C3)c(C(F)(F)F)c2)cc1Nc1nccc(-c2cncnc2)n1 [Bafetinib] (max concentration tested 1000 nM)
Key: 0.45

Exercise: Value lookup for percent inhibition of viability; key = Nc1ncnc2c1c(COc1cccc(Cl)c1)nn2C1CCOCC1 (max concentration tested 10000 nM)
Key: -5.45

Exercise: Value lookup for percent inhibition of viability; key = CNCc1ccc(-c2[nH]c3cc(F)cc4c3c2CCNC4=O)cc1 [Rucaparib] (max concentration tested 10000 nM)
Key: 8.56

Exercise: Value lookup for percent inhibition of viability; key = S=C(NCc1ccc2c(c1)OCO2)N1CCN(c2ncnc3c2oc2ccccc23)CC1 [Amuvatinib] (max concentration tested 10000 nM)
Key: -11.4

Exercise: Value lookup for percent inhibition of viability; key = CC(C)CC(=O)Nc1n[nH]c2c1CN(C(=O)C1CCN(C)CC1)C2(C)C (max concentration tested 10000 nM)
Key: 8.8

Exercise: Value lookup for percent inhibition of viability; key = C#Cc1cccc(Nc2ncnc3cc(OCCOC)c(OCCOC)cc23)c1 [Erlotinib] (max concentration tested 10000 nM)
Key: 4.56

Exercise: Value lookup for percent inhibition of viability; key = CC[C@@H]1C(=O)N(C)c2cnc(Nc3ccc(C(=O)N[C@H]4CC[C@H](N5CCN(CC6CC6)CC5)CC4)cc3OC)nc2N1C(C)C [Volasertib] (max concentration tested 1000 nM)
Key: 33.1

Exercise: Value lookup for percent inhibition of viability; key = Cc1nc(C(=O)NCC(=O)O)c(O)c2ccc(Oc3ccccc3)cc12 [FG-4592] (max concentration tested 10000 nM)
Key: -2.06

Exercise: Value lookup for percent inhibition of viability; key = CC(C)C(=O)Nc1ccc([N+](=O)[O-])c(C(F)(F)F)c1 [Flutamide] (max concentration tested 10000 nM)
Key: -2.4

Exercise: Value lookup for percent inhibition of viability; key = COc1ccc(-c2nc(N3CCOCC3)c3sc(CN(C)c4ncc(C(=O)NO)cn4)cc3n2)cn1 [CUDC-907] (max concentration tested 10000 nM)
Key: 83.5

Exercise: Value lookup for percent inhibition of viability; key = CN(C)/N=N/c1[nH]cnc1C(N)=O [Dacarbazine] (max concentration tested 10000 nM)
Key: -14.5

Exercise: Value lookup for percent inhibition of viability; key = O[C@H]1CC[C@H](Nc2ncc3nc(Nc4c(F)cc(F)cc4F)n([C@H]4CCOC4)c3n2)CC1 [Tanzisertib] (max concentration tested 10000 nM)
Key: -5.43

Exercise: Value lookup for percent inhibition of viability; key = CC(C)N(CCCNC(=O)Nc1ccc(C(C)(C)C)cc1)C[C@H]1O[C@@H](n2cc(Br)c3c(N)ncnc32)[C@H](O)[C@@H]1O [SGC0946] (max concentration tested 10000 nM)
Key: -1.7
